# z-score per entry
- experimentalDetails: E. coli acrAB mutant growth effects, primary screen, E. coli filamentation inducers, strain DRC39, OD650, 48 h (AID 1179);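 also: screen aims at cell division blockers that make cells filament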
- reportedConditions: E. coli DRC39 delta-acrAB growth, higher = more signal, called active from +8 up or from −8 down
Reply: number alone, nothing else.

Worked cases, z-score given:
>  <compound>
CCCCC(O)C1C=CC2C(=O)NC(=O)C2N1Nc1ccc(Cl)cc1Cl (centres undefined)

>  <z-score>
-1.31

$$$$
>  <compound>
CN1C(=O)C2C(C1=O)C1C=C(c3ccc(CO)cc3)C2C(c2cccs2)N1C (centres undefined)

>  <z-score>
0.346

$$$$
>  <compound>
CC(C)(C)N1CC=CC23O[C@@H]4/C=C\CCCOC(=O)C4[C@H]2C(=O)N(CCCCCCO)[C@@H]3C1=O (some centres undefined)

>  <z-score>
0.602

$$$$
>  <compound>
CCCC[C@@H]1C[C@H]1[C@@H](NC(=O)c1ccc(C(F)(F)F)cc1)c1ccc(C(=O)OC)cc1

>  <z-score>
0.787

$$$$
>  <compound>
COCC(=C=CC[C@@H](O)c1cccc(OCCO)c1)C[C@@H](O)COCc1ccccc1

>  <z-score>
0.392

$$$$

Entry `COCCn1c(C(=O)N2CCCC2)cc2c1C[C@H]1CN(C(=O)c3ccccc3)[C@@](Cc3ccccc3)(C(=O)OC)[C@@H]21` , z-score reported as -0.0447

get_value(item= COC(=O)C1=CC(CCCO)=CC(c2ccc(CN3CCCC3)cc2)N(Cc2sc3ccccc3c2Cl)C=C1C(=O)OC (centres undefined) , readout=z-score) returns 1.29

# z-score of `O=C1N(CCS(=O)(=O)c2ccccc2)c2ccccc2[C@@H]2OC(c3ccc(OCCCO)cc3)=N[C@]12CCS(=O)(=O)c1ccccc1` = -0.468

The reported value for `C#CCN=C(N)N` in terms of z-score is -0.079

* * *

- experimentalDetails: FRG1 promoter luciferase signal modulators, primary screen, FRG1 inhibition for FSHD, cell-based, C2C12 myotubes, firefly/Renilla luciferase, luminescence (AID 1084)
- reportedConditions: higher = more signal, called active from +8 up or from −8 down
Assign classes using reported z-score values and the ranges Low = under -1, Medium = from -1 up to -0.004, High = -0.004 and over, please.

>  <compound>
C=CCC(OC(C)=O)[C@@H]1[C@@H](N(Cc2cccc3ccccc23)C(=O)c2ccc(C)cc2)c2cc(OCCCO)ccc2N1C(=O)c1ccc2ccccc2n1 (some centres undefined)

>  <discreteLabel>
Low

$$$$
>  <compound>
CC(C)c1ccc(NN2C(C(O)C(C)C)C=CC3C(=O)N(c4ccccc4)C(=O)C32)cc1 (centres undefined)

>  <discreteLabel>
High

$$$$
>  <compound>
[N-]=[N+]=NCc1ccccc1[C@@H]1OC(c2ccc(OCCCO)cc2)=N[C@]1(Cc1ccccc1)C(=O)NCc1ccccc1

>  <discreteLabel>
Low

$$$$
>  <compound>
C[C@]1(C(=O)NCC(F)(F)F)c2ccccc2C(=O)N(Cc2ccc(OC(F)(F)F)cc2)[C@H]1c1ccc(CO)cc1

>  <discreteLabel>
Low

$$$$
>  <compound>
CCCC=C(CCC)[C@@H](NS(=O)(=O)c1ccc(Cl)cc1)c1ccccc1

>  <discreteLabel>
High

$$$$
>  <compound>
C=CCC(OC(C)=O)[C@@H]1[C@@H](N(Cc2ccc(-c3ccccc3)cc2)C(=O)c2ccc(-c3ccccc3)cc2)c2cc(OCCCO)ccc2N1C(=O)c1ccc2ccccc2n1 (some centres undefined)

>  <discreteLabel>
Medium

$$$$
>  <compound>
COc1ccc(CCNC(=O)[C@@]2(Sc3ccc(C)cc3)CC(=O)N(C(C)C)[C@@H]2c2ccc(CO)cc2)cc1

>  <discreteLabel>
Medium

$$$$
>  <compound>
C=CCOC(=O)[C@H]1[C@@H]2C(=O)O[C@@H](c3ccccc3)[C@@H](c3ccccc3)N2[C@@H](c2ccc(OCCOC(=O)[C@H]3C[C@H]4C(=O)NCC(=O)N4[C@H]3c3ccc(O)cc3)cc2)[C@]12C(=O)Nc1ccc(I)cc12

>  <discreteLabel>
Low

$$$$
>  <compound>
COc1ccc(CCNC(=O)[C@@H]2c3ccccc3C(=O)N(CC34CC5CC(CC(C5)C3)C4)[C@H]2c2ccc(CO)cc2)cc1

>  <discreteLabel>
Low

$$$$
>  <compound>
CCOC(=O)C[C@H]1[C@H](OC(=O)c2ccc(-c3ccccc3)cc2)[C@@H](NC(=O)c2ccc3ccccc3c2)c2cc(OCCCO)ccc2N1C(=O)c1ccccc1

>  <discreteLabel>
Medium

$$$$

[Q] # classify by z-score band: `C=CCNC(=O)[C@@H]1[C@H]2C(=O)O[C@H](c3ccccc3)[C@H](c3ccccc3)N2[C@H](c2ccccc2OCCO)[C@@]12C(=O)N(C(=O)OCCOC)c1ccc(C#CCCO)cc12`
[A] High

[Q] Returns: class label. Input: `C=C(C(=O)CC[C@@H](OC(C)=O)c1cccc(OCCO)c1)C(C)C`
[A] High

[Q] For this compound, which bin applies? `CCCC[C@@H](O)C1=C(COC)Cn2c(=O)n(-c3ccccc3)c(=O)n2[C@H]1CO`
[A] Low
